Please go through the items and note down their self-cleavage.
B1: CPEB3 Ribozyme (parent)
chain: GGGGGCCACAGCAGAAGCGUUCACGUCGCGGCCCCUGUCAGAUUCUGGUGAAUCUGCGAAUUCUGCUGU

variants of: B1; test: self-cleavage, relative activity (ratio to wild type); higher = more cleavage; co-transcriptional
Answer using only a numeral; do not append any unit.

[in] Using the record for A13U G50C , report its self-cleavage.
[out] 0.756

[in] Can you check U36A C66U next?
[out] 0.187

[in] Record: U21C C22A
[out] 0.24

[in] # repeat for G31U C39A
[out] 0.319

[in] // query: A8G A59C
[out] 0.162

[in] How about this variant: G3C C24U
[out] 0.0425

[in] What would you report for C45U A52U ?
[out] 0.972

[in] Note, next up: G17U C18G
[out] 0.138

[in] Note, next up: A8G G68U
[out] 0.841

[in] Moving on to the next variant: A16C G30C
[out] 0.191

[in] Item: A16U C66G
[out] 0.356

[in] Again, but for U21C C24U
[out] 0.429

[in] Ok, now G3A U46G
[out] 0.688

[in] One more variant: A16U U69C
[out] 1.02

[in] Note, next up: C18G U61G
[out] 0.144

[in] And then A13U G50U , what is it?
[out] 0.857

[in] Record: A13C G58C
[out] 0.862

[in] Then what about the variant A13U C34G ?
[out] 0.309

[in] Could you do the same for G3U A10C , please?
[out] 0.332

[in] Would you kindly repeat that for C39U U61A ?
[out] 0.766

[in] Would you kindly repeat that for G30C U69A ?
[out] 0.88

[in] Note, next up: C7A U26C
[out] 0.357

[in] Same lookup for U20C A23C , please.
[out] 0.243

[in] Also G11A U20C , if possible.
[out] 0.213

[in] Next variant: G37U C63U
[out] 0.271

[in] Same question for G1C C6G please.
[out] 0.658

[in] Similarly, G31C U46A ?
[out] 0.263

[in] Entry U21C G58C please
[out] 0.826

[in] Now the same for U49A G56U
[out] 0.991

[in] Also C57A C66G ?
[out] 0.373

[in] Moving on to the next variant: U38C C66G
[out] 0.717

[in] And the next one, G14C C27A ?
[out] 0.146

[in] How about this variant: G4C A8U
[out] 0.617

[in] Now this one: U36G A60U
[out] 0.181

[in] Same thing, different variant: G14C U67C
[out] 0.443

[in] Field entry: G37C U43A
[out] 0.264

[in] Note, next up: G2A U26G
[out] 0.0691

[in] Ok, now G4A A59U
[out] 0.283

[in] Field entry: G30A G48U
[out] 0.868

[in] Again, but for C22A A40G
[out] 0.246

[in] Subsequent entry: G48U G56U
[out] 0.994

[in] Quick one: G5A A51U
[out] 0.859

[in] Another: G30A U53G
[out] 0.356

[in] And then A13G C54G , what is it?
[out] 0.772

[in] G4A A15C , same question.
[out] 0.329

[in] G14A C66A ?
[out] 0.262

[in] Also G25A C45A , if possible.
[out] 0.208

[in] Check G30U U43C too.
[out] 0.38

[in] Also check A13G C45A
[out] 0.889

[in] Field entry: G50U G68A
[out] 1.01

[in] Now give it for A16U G50U too.
[out] 0.862

[in] Same for G2C C9G
[out] 0.123

[in] Entry to check: G17A C24A
[out] 0.221

[in] And for G11U U49A ?
[out] 0.941

[in] Request: U38C U46A
[out] 0.943

[in] What do we get for G14C G41A ?
[out] 0.16

[in] Can you handle U21G A51U next?
[out] 0.497

[in] And what about the variant C6U C57U ?
[out] 0.363

[in] Now the variant G30C U46G
[out] 0.69

[in] How about G31A C34A ?
[out] 0.239

[in] Input A15G G19U
[out] 0.439

[in] What would you report for G5C G17C ?
[out] 0.0976

[in] Also U36C A59G , if possible.
[out] 0.962

[in] Please answer likewise for C54U U55A
[out] 0.924

[in] And then G58C C63G , what is it?
[out] 0.823

[in] Quick one: A15U C35U
[out] 0.776

[in] Another variant to look at: C22A U69G
[out] 0.301

[in] # repeat for G14U G58C
[out] 0.72

[in] Try this variant too: U21G U67G
[out] 0.579

[in] Also need A51C U64C , thanks.
[out] 0.787

[in] # repeat for G3U U53C
[out] 0.0626

[in] Can you check `C29G` next?
[out] 0.618

[in] And then G47U A60G , what is it?
[out] 0.912
